Target: cathepsin K (Homo sapiens, UniProt P43235)
Sequence (P43235 115-329): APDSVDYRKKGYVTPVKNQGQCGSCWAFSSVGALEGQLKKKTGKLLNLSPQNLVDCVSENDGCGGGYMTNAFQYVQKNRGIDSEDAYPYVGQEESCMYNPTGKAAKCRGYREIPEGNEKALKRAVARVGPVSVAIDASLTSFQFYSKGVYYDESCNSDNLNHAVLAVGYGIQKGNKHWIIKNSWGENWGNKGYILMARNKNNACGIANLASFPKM
Measured pIC50 of individual entries
As a rule, pIC50 stands for the negative log10 of the concentration, concentration in M.

> print(dat)
                                   compound  observable  assay.value
1  CC(C)C[C@H](NC(=O)[C@@H](NC(=O)/C=C/c1ccc(Cl)cc1F)C(C)C)C(=O)N[C@H](C=O)C[C@@H]1CCNC1=O       pIC50         8.82
2  CC(C)C[C@H](NC(=O)[C@@H](NC(=O)OCc1ccccc1)[C@@H](C)OC(C)(C)C)C(=O)N[C@H](C=O)C[C@@H]1CCNC1=O       pIC50         8.97
3  O=C[C@H](C[C@@H]1CCNC1=O)NC(=O)[C@H](Cc1ccccc1)NC(=O)OCc1ccccc1       pIC50         9.06
4  O=C[C@H](C[C@@H]1CCNC1=O)NC(=O)[C@H](Cc1ccccc1)NC(=O)/C=C/c1ccc(Cl)cc1F       pIC50         9.11
5  CC(C)[C@H](NC(=O)OCc1ccccc1)C(=O)N[C@@H](Cc1ccccc1)C(=O)N[C@H](C=O)C[C@@H]1CCNC1=O       pIC50         7.31
6  CC(C)C[C@H](NC(=O)[C@@H](NC(=O)OCc1ccccc1)C(C)C)C(=O)N[C@H](C=O)C[C@@H]1CCNC1=O       pIC50         8.93
7  C[C@@H](OC(C)(C)C)[C@H](NC(=O)OCc1ccccc1)C(=O)N[C@@H](Cc1ccccc1)C(=O)N[C@H](C=O)C[C@@H]1CCNC1=O       pIC50         7.29
8  O=C[C@H](C[C@@H]1CCNC1=O)NC(=O)[C@H](CC1CCCCC1)NC(=O)c1cc2ccccc2[nH]1 [11a]       pIC50         8.85

Prompt: Consider the compound shown here: CC(C)[C@H](NC(=O)OCc1ccccc1)C(=O)N[C@@H](CC1CCCCC1)C(=O)N[C@H](C=O)C[C@@H]1CCNC1=O What is its recorded pIC50?
Completion: 6.87

###

Measured pIC50 of individual entries
Molecular target: cathepsin L (Homo sapiens)
As a rule, pIC50 stands for the negative log10 of the concentration, concentration in M.

> print(dat)
                                   compound  observable  assay.value
1  CC(C)[C@H](NC(=O)OCc1ccccc1)C(=O)N[C@@H](Cc1ccccc1)C(=O)N[C@H](C=O)C[C@@H]1CCNC1=O       pIC50         9.48
2  CC(C)C[C@H](NC(=O)[C@@H](NC(=O)/C=C/c1ccc(Cl)cc1F)C(C)C)C(=O)N[C@H](C=O)C[C@@H]1CCNC1=O       pIC50         9.25

Prompt: Give the reported pIC50 for C[C@@H](OC(C)(C)C)[C@H](NC(=O)OCc1ccccc1)C(=O)N[C@@H](Cc1ccccc1)C(=O)N[C@H](C=O)C[C@@H]1CCNC1=O (system: cathepsin L (Homo sapiens)).
Completion: 9.21

###

Target: cathepsin B (Homo sapiens, UniProt P07858)
pIC50: −log10 of the molar value.
Rule: pIC50 of 7 or more gives Condition met; anything lower gives Condition not met.

Some solved entries appear below for comparison.
> print(dat)
                                   compound                            assayed.system              class
1  O=C[C@H](C[C@@H]1CCNC1=O)NC(=O)[C@H](Cc1ccccc1)NC(=O)/C=C/c1ccc(Cl)cc1F  cathepsin B (Homo sapiens, UniProt P07858)      Condition met
2  O=C[C@H](C[C@@H]1CCNC1=O)NC(=O)[C@H](CC1CCCCC1)NC(=O)c1cc2ccccc2[nH]1 [11a]  cathepsin B (Homo sapiens, UniProt P07858)      Condition met
3  C[C@@H](OC(C)(C)C)[C@H](NC(=O)OCc1ccccc1)C(=O)N[C@@H](CC1CCCCC1)C(=O)N[C@H](C=O)C[C@@H]1CCNC1=O  cathepsin B (Homo sapiens, UniProt P07858)  Condition not met
4  CC(C)C[C@H](NC(=O)[C@@H](NC(=O)OCc1ccccc1)[C@@H](C)OC(C)(C)C)C(=O)N[C@H](C=O)C[C@@H]1CCNC1=O  cathepsin B (Homo sapiens, UniProt P07858)  Condition not met
5  O=C[C@H](C[C@@H]1CCNC1=O)NC(=O)[C@H](Cc1ccccc1)NC(=O)OCc1ccccc1  cathepsin B (Homo sapiens, UniProt P07858)      Condition met

Prompt: Does the compound CC(C)[C@H](NC(=O)OCc1ccccc1)C(=O)N[C@@H](Cc1ccccc1)C(=O)N[C@H](C=O)C[C@@H]1CCNC1=O have recorded pIC50 that is 7 or more?
Completion: Condition met

###

Molecular target: cathepsin L (Homo sapiens, UniProt P07711)
Sequence (P07711 114-288): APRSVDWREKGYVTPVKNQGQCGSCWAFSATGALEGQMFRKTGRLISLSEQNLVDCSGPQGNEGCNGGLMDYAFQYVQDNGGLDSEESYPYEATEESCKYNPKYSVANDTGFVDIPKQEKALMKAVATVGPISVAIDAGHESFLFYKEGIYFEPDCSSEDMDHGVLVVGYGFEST
Sequence (P07711 292-333): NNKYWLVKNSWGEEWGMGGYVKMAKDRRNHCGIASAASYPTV
Measured IC50 of individual entries
Record the result as a number with its unit.

Consider the reported IC50 for these compounds:
> print(dat)
                                   compound  observable  assay.value
1  CC(C)C[C@H](NC(=O)[C@@H](NC(=O)OCc1ccccc1)[C@@H](C)OC(C)(C)C)C(=O)N[C@H](C=O)C[C@@H]1CCNC1=O        IC50      0.45 nM
2  O=C[C@H](C[C@@H]1CCNC1=O)NC(=O)[C@H](Cc1ccccc1)NC(=O)OCc1ccccc1        IC50     0.079 nM
3  O=C[C@H](C[C@@H]1CCNC1=O)NC(=O)[C@H](Cc1ccccc1)NC(=O)/C=C/c1ccc(Cl)cc1F        IC50      0.19 nM
4  O=C[C@H](C[C@@H]1CCNC1=O)NC(=O)[C@H](CC1CCCCC1)NC(=O)c1cc2ccccc2[nH]1 [11a]        IC50      0.14 nM
5  CC(C)[C@H](NC(=O)OCc1ccccc1)C(=O)N[C@@H](CC1CCCCC1)C(=O)N[C@H](C=O)C[C@@H]1CCNC1=O        IC50       2.3 nM

Prompt: Give the reported IC50 for CC(C)C[C@H](NC(=O)[C@@H](NC(=O)OCc1ccccc1)C(C)C)C(=O)N[C@H](C=O)C[C@@H]1CCNC1=O (system: cathepsin L (Homo sapiens, UniProt P07711)).
Completion: 0.3 nM

###

UniProtKB P07858 IC50 data
Output spec: scalar in nM, unitless text.

Consider the reported IC50 for these compounds:
> print(dat)
                                   compound    assayed.system  observable  result.units  assay.value
1  CC(C)C[C@H](NC(=O)[C@@H](NC(=O)/C=C/c1ccc(Cl)cc1F)C(C)C)C(=O)N[C@H](C=O)C[C@@H]1CCNC1=O  UniProtKB P07858        IC50            nM          147
2  C[C@@H](OC(C)(C)C)[C@H](NC(=O)OCc1ccccc1)C(=O)N[C@@H](Cc1ccccc1)C(=O)N[C@H](C=O)C[C@@H]1CCNC1=O  UniProtKB P07858        IC50            nM           64
3  CC(C)[C@H](NC(=O)OCc1ccccc1)C(=O)N[C@@H](CC1CCCCC1)C(=O)N[C@H](C=O)C[C@@H]1CCNC1=O  UniProtKB P07858        IC50            nM           80

Prompt: Give the reported IC50 for CC(C)C[C@H](NC(=O)[C@@H](NC(=O)OCc1ccccc1)C(C)C)C(=O)N[C@H](C=O)C[C@@H]1CCNC1=O (system: UniProtKB P07858).
Completion: 112
